target: Porcine pancreatic phospholipase A2 (Sus scrofa, UniProt P00592); construct: purchased Boehringer Mannheim·Yamanouchi K.K. 161454·122416; assay: Phospholipase A2 inhibitory activity, method B (L-α-dipalmitoylphosphatidylcholine substrate); type: biochemical; conditions: 1,000 ppm, 37°C for 30 minutes, read-out: % inhibition of PLA2 (1,000 ppm)
Sequence (P00592 23-146): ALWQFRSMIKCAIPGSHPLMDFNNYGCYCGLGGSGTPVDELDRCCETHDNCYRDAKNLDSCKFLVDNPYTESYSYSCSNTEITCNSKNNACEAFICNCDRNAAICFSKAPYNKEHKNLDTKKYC
# inhibition at 1000 ppm annotations
Just the number please, in %, no unit attached.

Input: Which measured inhibition at 1000 ppm belongs to CS(=O)(=O)Nc1ncc(C(F)(F)F)cc1NC(=O)C(F)(F)C(F)(F)F , tested on Porcine pancreatic phospholipase A2 (Sus scrofa, UniProt P00592)?
Output: 51

Input: Same question, CS(=O)(=O)Nc1ncc(C(F)(F)F)cc1NC(=O)c1ccccc1 this time
Output: 49

Input: Same question, CS(=O)(=O)Nc1ncc(C(F)(F)F)cc1NC(=O)c1cccc(F)c1 this time
Output: 42

###

# LD50 at 168 h annotations
experiment: Acute toxicity, intravenous injection (LD50); format: in vivo; conditions: mouse, in vivo, ddy male mice, sodium salt, mortality over one week

Input: Look up LD50 at 168 h for this compound: CCOC(=O)NC(=S)Nc1cc(C(F)(F)F)cnc1NS(C)(=O)=O
Output: > 150 mg/kg

Input: Same question, CCOC(=O)NC(=S)Nc1cc(C(F)(F)F)cnc1NS(=O)(=O)CC this time
Output: > 75 mg/kg

Input: Same question, CCCCOC(=O)Nc1cc(C(F)(F)F)cnc1NS(C)(=O)=O this time
Output: 50 to 100 mg/kg

Input: Same question, CCCOC(=O)Nc1cc(C(F)(F)F)cnc1NS(C)(=O)=O this time
Output: > 100 mg/kg

Input: Same question, CCOC(=O)Nc1cc(C(F)(F)F)cnc1NS(C)(=O)=O this time
Output: 100 to 150 mg/kg

Input: Same question, CCCOC(=O)Nc1cc(C(F)(F)F)cnc1NS(=O)(=O)C(C)C this time
Output: > 20 mg/kg

###

test system: increased vascular permeability induced by acetic acid; test: Inhibitory activity on increased vascular permeability induced by acetic acid (Mouse Whittle method, method C); format: in vivo, ddy male mice; conditions: dose 50 mg/kg orally, amount of leaked dye
Checkbox rule: Inhibition rate (%) lower than 40% = Satisfied; Inhibition rate (%) not lower than 40% = Not satisfied.

Input: # check: Inhibition rate (%) < 40% for CCCCCCCCCCCC(=O)Nc1cc(C(F)(F)F)cnc1NS(C)(=O)=O
Output: Not satisfied

###

molecular target: Porcine pancreatic phospholipase A2 (Sus scrofa, UniProt P00592); construct: purchased Boehringer Mannheim·Yamanouchi K.K. 161454·122416; test: Phospholipase A2 inhibitory activity, method B (L-α-dipalmitoylphosphatidylcholine substrate); type: biochemical; settings: 1,000 ppm, 37°C for 30 minutes, read-out: % inhibition of PLA2 (1,000 ppm)
Please note: true applies when inhibition at 1000 ppm is 60% or greater, and false applies otherwise.

[
  {
    "compound": "CC=CC=CC(=O)Nc1cc(C(F)(F)F)cnc1NS(C)(=O)=O [compound 73]",
    "classLabel": "false"
  },
  {
    "compound": "CS(=O)(=O)Nc1ncc(C(F)(F)F)cc1NC(=O)C1CCCCCC1 [compound 67]",
    "classLabel": "true"
  },
  {
    "compound": "CS(=O)(=O)Nc1ncc(C(F)(F)F)cc1NC(=O)C(=O)c1ccccc1 [compound 90]",
    "classLabel": "true"
  },
  {
    "compound": "COc1ccc(S(=O)(=O)Nc2ncc(C(F)(F)F)cc2NC(=O)c2cccs2)cc1 [compound 109]",
    "classLabel": "true"
  },
  {
    "compound": "CS(=O)(=O)Nc1ncc(C(F)(F)F)cc1NC(=O)C1CCCC1 [compound 45]",
    "classLabel": "false"
  }
]

Input: # check: inhibition at 1000 ppm of CCS(=O)(=O)Nc1ncc(C(F)(F)F)cc1NC(=O)C1CCCC1 [compound 94] is greater than or equal to 60%
Output: true

Input: Same question, CC(Cl)(Cl)C(=O)Nc1cc(C(F)(F)F)cnc1NS(C)(=O)=O [compound 89] this time
Output: false

###

Test: Acute toxicity, intravenous injection (LD50)
Assay type: in vivo
Details: mouse, in vivo, iv, ddy male mice, sodium salt, mortality over one week
Method: Administration route: Intravenous injection Using ddy male mice (body weight: 25 - 30 g), each test group consisted of 5 mice. A test compound was dissolved in the form of a sodium salt in a physiological saline or in a 5% glucose aqueous solution, and intravenously injected in an amount of 0.1 ml/10 g body weight. After the injection, the mortality rate was obtained over one week, and the median lethal dose LD50 (mg/kg) was determined.
# LD50 at 168 h annotations

Before answering, review these 3 worked examples.
[
  {
    "compound": "CS(=O)(=O)Nc1ncc(C(F)(F)F)cc1NC(=O)c1ccc(F)c(F)c1 [compound 77]",
    "reported": "> 80 mg/kg"
  },
  {
    "compound": "CS(=O)(=O)NNc1ncc(C(F)(F)F)cc1NC(=O)C(F)(F)C(F)(F)F [compound 40]",
    "reported": "50 to 100 mg/kg"
  },
  {
    "compound": "Cc1cccc(C(=O)Nc2cc(C(F)(F)F)cnc2NS(C)(=O)=O)c1 [compound 78]",
    "reported": "> 60 mg/kg"
  }
]

Attention now shifts to the item below.
Input: Look up LD50 at 168 h for this compound: O=C(Nc1cc(C(F)(F)F)cnc1NS(=O)(=O)C(F)(F)F)C1CCCCC1 [compound 91]
Output: > 80 mg/kg

###

target: Porcine pancreatic phospholipase A2 (Sus scrofa); construct: purchased Boehringer Mannheim·Yamanouchi K.K. 161454·122416; test: Phospholipase A2 inhibitory activity, method A (egg yolk lecithin substrate); type: biochemical; settings: 1,000 ppm, 37°C for 30 minutes, read-out: % inhibition of PLA2 (1,000 ppm)
# inhibition at 1000 ppm annotations

Before answering, review these 3 worked examples.
[
  {
    "substanceSmiles": "CCS(=O)(=O)Nc1ncc(C(F)(F)F)cc1NC(=O)c1ccccc1",
    "inhibition at 1000 ppm": "48%"
  },
  {
    "substanceSmiles": "CCCCOC(=O)Nc1cc(C(F)(F)F)cnc1NS(C)(=O)=O",
    "inhibition at 1000 ppm": "46%"
  },
  {
    "substanceSmiles": "O=C(Nc1ncc(C(F)(F)F)cc1NC(=O)C(Cl)(Cl)Cl)C(F)(F)F",
    "inhibition at 1000 ppm": "87%"
  }
]

Input: Look up inhibition at 1000 ppm for this compound: CCCCC(=O)Nc1cc(C(F)(F)F)cnc1NS(C)(=O)=O
Output: 55%

Input: Same question, CC(C)S(=O)(=O)Nc1ncc(C(F)(F)F)cc1NC(=O)C(Cl)(Cl)Cl this time
Output: 78%

Input: Same question, O=C(Nc1cc(C(F)(F)F)cnc1NC(=O)C(Cl)Cl)C(Cl)Cl this time
Output: 71%

Input: Same question, CCOC(=O)Nc1ncc(C(F)(F)F)cc1NC(=O)OCc1ccccc1 this time
Output: 35%

Input: Same question, O=C(Nc1cc(C(F)(F)F)cnc1NS(=O)(=O)c1ccccc1)C(F)(F)F this time
Output: 66%

###

target: Porcine pancreatic phospholipase A2 (Sus scrofa); construct: purchased Boehringer Mannheim·Yamanouchi K.K. 161454·122416; experiment: Phospholipase A2 inhibitory activity, method B (L-α-dipalmitoylphosphatidylcholine substrate); assay type: biochemical; settings: 1,000 ppm, 37°C for 30 minutes, read-out: % inhibition of PLA2 (1,000 ppm)
# inhibition at 1000 ppm annotations
Just the number please, in %, no unit attached.

Before answering, review these 3 worked examples.
[
  {
    "compound": "C/C=C/C(=O)Nc1cc(C(F)(F)F)cnc1NS(=O)(=O)CC",
    "unitTag": "%",
    "inhibition at 1000 ppm": 48
  },
  {
    "compound": "CC(C)(C)CC(=O)Nc1cc(C(F)(F)F)cnc1NS(C)(=O)=O",
    "unitTag": "%",
    "inhibition at 1000 ppm": 50
  },
  {
    "compound": "CS(=O)(=O)Nc1ncc(C(F)(F)F)cc1NC(=O)C1=CCCCC1",
    "unitTag": "%",
    "inhibition at 1000 ppm": 63
  }
]

Input: Look up inhibition at 1000 ppm for this compound: CCCCC(CC)C(=O)Nc1cc(C(F)(F)F)cnc1NS(C)(=O)=O (stereo not drawn)
Output: 71

Input: Same question, C=CCCC(=O)Nc1cc(C(F)(F)F)cnc1NS(C)(=O)=O this time
Output: 33

Input: Same question, CCS(=O)(=O)Nc1ncc(C(F)(F)F)cc1NC(=O)C1CCCCC1 this time
Output: 90

###

test system: increased vascular permeability induced by acetic acid; experiment: Inhibitory activity on increased vascular permeability induced by acetic acid (Mouse Whittle method, method C); assay type: in vivo, ddy male mice; conditions: dose 50 mg/kg orally, amount of leaked dye
# Inhibition rate (%) annotations
Just the number please, in %, no unit attached.

Before answering, review these 5 worked examples.
[
  {
    "substanceSmiles": "CCCCCC(=O)Nc1cc(C(F)(F)F)cnc1NS(C)(=O)=O",
    "propertyLabel": "Inhibition rate (%)",
    "reported": 58
  },
  {
    "substanceSmiles": "C=CC(=O)Nc1cc(C(F)(F)F)cnc1NS(C)(=O)=O",
    "propertyLabel": "Inhibition rate (%)",
    "reported": 81
  },
  {
    "substanceSmiles": "CCOC(=O)Nc1cc(C(F)(F)F)cnc1NS(C)(=O)=O",
    "propertyLabel": "Inhibition rate (%)",
    "reported": 41
  },
  {
    "substanceSmiles": "CCCCOC(=O)Nc1cc(C(F)(F)F)cnc1NS(C)(=O)=O",
    "propertyLabel": "Inhibition rate (%)",
    "reported": 31
  },
  {
    "substanceSmiles": "CCCCCCCCC(=O)Nc1cc(C(F)(F)F)cnc1NS(C)(=O)=O",
    "propertyLabel": "Inhibition rate (%)",
    "reported": 43
  }
]

Input: Look up Inhibition rate (%) for this compound: CCCC(=O)Nc1cc(C(F)(F)F)cnc1NS(C)(=O)=O
Output: 46

meta.source: patent EP0465913B1
